Overview of recorded inhibition of aggregation for various compounds
# measurement_notes: inhibitors of mutant huntingtin aggregation, primary screen, imaging, exon1htt(103Q)mCFP cells, high-content imaging (AID 483);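 also: compound exposure lasted 3 days before fixation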
# measurement_setup: exon1htt(103Q)mCFP cell line, aggregate imaging, at 2 µM; stronger effect = higher value
Please state the figure in %; there is no need to write the unit.

Example entries and their recorded answers appear below.
INSERT INTO results (compound, measurement_name, numeric_result) VALUES
  ('Nn1c(SCC(=O)Nc2ccc3c(c2)OCCO3)nnc1C(F)(F)F', 'inhibition of aggregation', -32.9),
  ('O=C(O)CC1SC(=Nc2cccc(C(F)(F)F)c2)NC1=O (stereo not given)', 'inhibition of aggregation', 3.4),
  ('CCOC(=O)CSC1=C(C#N)C(=O)NC2(CCCCC2)S1', 'inhibition of aggregation', -5.9),
  ('c1ccc2c(c1)[nH]c1c(N3CCC4(CC3)OCCO4)ncnc12', 'inhibition of aggregation', -24.1),
  ('CCN(CC)CC#CCOC(=O)C(O)(c1ccccc1)C1CCCCC1 (stereo not given)', 'inhibition of aggregation', -15.9),
  ('COc1ccc(N2CCN(c3nc4c(c(=O)[nH]c(=O)n4C)n3CCCc3ccccc3)CC2)cc1', 'inhibition of aggregation', 2.8);

### Prompt May I ask what inhibition of aggregation has been recorded for `NS(=O)(=O)c1cc2c(cc1Cl)NC=NS2(=O)=O` ?
### Response -4.4

### Prompt May I ask what inhibition of aggregation has been recorded for `OC(CCN1CCCCC1)(c1ccccc1)c1ccccc1` ?
### Response -18

### Prompt May I ask what inhibition of aggregation has been recorded for O=C(C1CC1(c1ccccc1)c1ccccc1)N1CCOCC1 (stereo not given) ?
### Response 13.6

### Prompt May I ask what inhibition of aggregation has been recorded for `Cc1c(Cl)cccc1Nc1ccccc1C(=O)O` ?
### Response 17.9
